Where do the numbers come from? From BindingDB's records for patent US12570607.

Assign IC50 to each entry below.
Molecular target: UniProt:Q00535
Sequence (Q00535 whole entry): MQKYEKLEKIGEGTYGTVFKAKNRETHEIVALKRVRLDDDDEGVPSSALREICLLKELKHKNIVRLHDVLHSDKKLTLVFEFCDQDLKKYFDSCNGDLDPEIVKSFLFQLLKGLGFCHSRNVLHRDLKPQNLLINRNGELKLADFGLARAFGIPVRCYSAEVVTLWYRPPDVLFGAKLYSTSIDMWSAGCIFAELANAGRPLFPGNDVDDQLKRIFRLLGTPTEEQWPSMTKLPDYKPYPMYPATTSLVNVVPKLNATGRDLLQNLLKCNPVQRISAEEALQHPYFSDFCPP
Assay: Inhibitory Effect Assay
Method: A compound dissolved in DMSO (50 nL) was transferred to the kinase reaction plate by using acoustic technology (Echo). 5 μL of a CDK kinase dilution solution was added to the kinase reaction plate and incubated at room temperature for 10 minutes after centrifugation. 5 μL of a substrate premix solution was added to the plate, and the final concentrations of the substrate and the ATP in each well were shown in Table 1. After centrifugation, the reaction was performed at 30° C. for 120 minutes.
Your answer is read as nM, so omit the unit and give the number.

query: Identify measured IC50 corresponding to COc1cc(F)ccc1-c1cc(NC(=O)[C@H]2CCC[C@@H](NC(=O)C3(C#N)CC3)C2)ncc1F [US12570607, Example 33]
result: 168

query: Identify measured IC50 corresponding to CNC(=O)N[C@@H]1CCC[C@H](C(=O)Nc2cc(-c3ccc(F)cc3OC)c(F)cn2)C1 [US12570607, Example 37]
result: 248

query: Identify measured IC50 corresponding to CC(=O)N[C@@H]1CCC[C@H](C(=O)Nc2cc(-c3ccc(F)cc3OC(C)C)c(F)cn2)C1 [US12570607, Example 8]
result: 614

query: Identify measured IC50 corresponding to COc1cc(F)ccc1-c1cc(NC(=O)[C@H]2CCC[C@@H](NC(=O)CO)C2)ncc1F [US12570607, Example 45]
result: 284

query: Identify measured IC50 corresponding to COc1cc(F)ccc1-c1cc(NC(=O)[C@H]2CCC[C@@H](NS(C)(=O)=O)C2)ncc1F [US12570607, Example 25]
result: 716

query: Identify measured IC50 corresponding to COc1cc(F)ccc1-c1cc(NC(=O)[C@H]2CCC[C@@H](NC(=O)C(F)(F)F)C2)ncc1F [US12570607, Example 42]
result: 140

query: Identify measured IC50 corresponding to COc1ccccc1-c1cc(NC(=O)[C@H]2CCC[C@@H](NC(C)=O)C2)ncc1F [US12570607, Example 17]
result: 357

query: Identify measured IC50 corresponding to COc1cc(F)c(F)cc1-c1cc(NC(=O)[C@H]2CCC[C@@H](NC(=O)C3(C#N)CC3)C2)ncc1F [US12570607, Example 67]
result: 82.9

====

Molecular target: Cyclin-dependent kinase 1 (Homo sapiens)
Sequence (P06493 whole entry): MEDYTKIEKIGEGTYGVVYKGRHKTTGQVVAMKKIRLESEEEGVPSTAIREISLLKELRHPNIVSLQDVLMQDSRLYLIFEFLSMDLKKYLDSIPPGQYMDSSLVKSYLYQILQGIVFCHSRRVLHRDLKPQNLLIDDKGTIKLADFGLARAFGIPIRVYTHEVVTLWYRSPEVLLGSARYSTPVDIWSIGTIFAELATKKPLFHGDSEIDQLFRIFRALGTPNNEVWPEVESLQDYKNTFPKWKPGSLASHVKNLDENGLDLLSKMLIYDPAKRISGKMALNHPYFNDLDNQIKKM
Just a reminder that ties go to criterion not met: only IC50 strictly below 100 nM counts as criterion met.

query: Determine if CNC(=O)N[C@@H]1CCC[C@H](C(=O)Nc2cc(-c3ccc(F)cc3OC)c(F)cn2)C1 shows IC50 strictly lower than 100 nM.
result: criterion met

query: Determine if COc1ccccc1-c1cc(NC(=O)[C@H]2CCC[C@@H](NC(C)=O)C2)ncc1F shows IC50 strictly lower than 100 nM.
result: criterion not met

query: Determine if COc1cc(F)ccc1-c1cc(NC(=O)[C@H]2CCC[C@@H](NC(=O)CO)C2)ncc1F shows IC50 strictly lower than 100 nM.
result: criterion met

query: Determine if COc1cc(F)ccc1-c1cc(NC(=O)[C@H]2CCC[C@@H](NC(=O)CC#N)C2)ncc1F shows IC50 strictly lower than 100 nM.
result: criterion met

query: Determine if CC(=O)N[C@@H]1CCC[C@H](C(=O)Nc2cc(-c3ccc(F)cc3OC(C)C)c(F)cn2)C1 shows IC50 strictly lower than 100 nM.
result: criterion not met

query: Determine if CC(=O)N[C@@H]1CCC[C@H](C(=O)Nc2cc(-c3cccc4ccoc34)c(F)cn2)C1 shows IC50 strictly lower than 100 nM.
result: criterion met

query: Determine if COc1cc(F)ccc1-c1cc(NC(=O)C2CCCC(NC(C)=O)C2)ncc1F (stereo not drawn) shows IC50 strictly lower than 100 nM.
result: criterion not met

query: Determine if COc1cc(F)ccc1-c1cc(NC(=O)[C@H]2CCC[C@@H](NC(=O)[C@H](C)O)C2)ncc1F shows IC50 strictly lower than 100 nM.
result: criterion not met
